System: HOP-62
Assay: NCI tumour cell line growth inhibition, 48 h
Calls of active or inactive are those of the source. Cut-off read from the data, not from the text of the source: active = GI50 up to about 1.1 µM and inactive = higher.
measure.name: GI50

>>> reported("COC1/C=C/OC2(C)Oc3c(C)c(O)c4c(c3C2=O)C(=O)C=C(NC(=O)/C(C)=C\\C=C\\C(C)C(OC=O)C(C)C(O)C(C)C(OC(C)=O)C1C)C4=O (centres undefined)")
"18.7 µM (inactive)"
>>> reported("O=C(NCCO)c1ccc([N+](=O)[O-])cc1")
"> 100 µM (inactive)"
>>> reported("Cc1c(-c2ccccc2)c(C#N)c2nnn(-c3ccc(Cl)cc3)c(=O)n12")
"7.14 µM (inactive)"
>>> reported("CCOC(=O)Nc1ccc(S(=O)(=O)Nc2ccc(Br)cc2)cc1")
"33.5 µM (inactive)"
>>> reported("CC(C)(C)[Si](C)(C)OCC1CCC(n2cnc3c(NC(=O)c4ccccc4)ncnc32)O1 (centres undefined)")
"22 µM (inactive)"
>>> reported("CNC(C)C(O)c1ccc2oc3cc(=O)c4ccccc4c-3nc2c1 (centres undefined)")
"5.82 µM (inactive)"
>>> reported("Cc1ccc2nc(-c3ccc(N)c(Br)c3)sc2c1")
"13.5 µM (inactive)"
>>> reported("O=C(/N=N/c1ccc(Br)cc1)NNc1ccc(Br)cc1")
"16.4 µM (inactive)"
>>> reported("O=CC1CCC=CC1NC(=O)OCc1ccccc1 (centres undefined)")
"> 100 µM (inactive)"
>>> reported("C[C@@H](NC1CCC[C@H]1O)c1ccccc1 (some centres undefined)")
"> 100 µM (inactive)"
>>> reported("CC1=Nc2sc3c(c2C2=NCCN12)CCCC3")
"40.6 µM (inactive)"
>>> reported("O=c1ccn2n1Cc1ccccc1C2")
"> 100 µM (inactive)"
>>> reported("CCOc1ccc(NC(=O)/C(Cc2nc3ccccc3nc2O)=N\\O)cc1")
"> 100 µM (inactive)"
>>> reported("O=C(/C=C/c1ccc2c(c1)OCO2)NCCc1ccco1")
"83.8 µM (inactive)"
>>> reported("CC1=NN(C(=O)Nc2ccc(Cl)cc2)C(=O)C2CCC(=O)N12 (centres undefined)")
"> 100 µM (inactive)"
>>> reported("CCCCCCCCCCCCCCCCCCNc1nc(=O)n(C2CC(O)C(COP(=O)(O)O)O2)cc1F (centres undefined)")
"81.7 µM (inactive)"
>>> reported("CC1=C(C(=O)CC(=O)C(=O)Nc2ccccc2)Sc2ccccc2N1")
"> 100 µM (inactive)"
>>> reported("COc1cc(C2c3[nH]c4ccc(F)cc4c3C[C@H]3COC(=O)N23)cc(OC)c1O (some centres undefined)")
"5.71 µM (inactive)"
>>> reported("CN(C)CCNC(=O)c1cccc2nc3c(ccc4ccccc43)nc12")
"2.25 µM (inactive)"
>>> reported("CCOC(=O)c1cc(=O)c2ccnc3c2n1CCS3")
"48.5 µM (inactive)"
>>> reported("N#CCN(Cc1ccccc1)[C@@H]1CCC[C@]1(O)C#Cc1ccc2c(c1)OCO2")
"16.2 µM (inactive)"
>>> reported("COc1ccc(O)cc1C(O)c1ccccc1 (centres undefined)")
"> 100 µM (inactive)"
>>> reported("CNC(=O)/C(=C/c1ccc(OC)cc1)c1cc(OC)c(OC)c(OC)c1")
"2.27 µM (inactive)"
>>> reported("NC(CCCNCc1ccccc1O)C(=O)O (centres undefined)")
"> 100 µM (inactive)"
>>> reported("CC(C)(C(=O)N(C(=O)N1CCN(c2ccccc2)CC1)S(=O)(=O)c1ccccc1)c1ccc(Cl)cc1")
"27.5 µM (inactive)"
>>> reported("CCOP(=O)(OCC)C1CCCCOC1=O (centres undefined)")
"> 100 µM (inactive)"
>>> reported("CC(C)CC1c2[nH]c3ccccc3c2C[C@H]2C(=O)NC(Cc3c[nH]c4ccccc34)C(=O)N12 (some centres undefined)")
"20.6 µM (inactive)"
>>> reported("CCOC1CN=C(Nc2cccc3ccccc23)S1 (centres undefined)")
"> 10 µM (inactive)"
>>> reported("O=C1NC(N2CCCCC2)=N/C1=C\\c1ccc(Cl)cc1")
"46.7 µM (inactive)"
>>> reported("O=c1c2cccc3cccc(c4oc5c6cccc7cccc(c(=O)c5c14)c76)c32")
"> 100 µM (inactive)"
>>> reported("CC(C)(CCC(C)(C)c1ccccc1)c1ccccc1")
"17.4 µM (inactive)"
>>> reported("COC(=O)C12C(=O)O[C@H](C)C1(O)C(C)C(=O)N2C (some centres undefined)")
"> 100 µM (inactive)"
>>> reported("CCOC(=O)c1sc2nc(SC)nc(Nc3ccc4c(c3)OCCCO4)c2c1N")
"20.1 µM (inactive)"
>>> reported("Cc1c(S(=O)(=O)N/C(=N\\O)Nc2ccc(Cl)c(Cl)c2)sc2ccc(Cl)cc12")
"18.5 µM (inactive)"
